Biological target: HLA-A02 (Homo sapiens, UniProt P04439, D140Y/D185E/D98H/E176V/E277Q/G131W/G231S/I119V/I121R/I166T/I218V/L300P/L318F/N151K/N90K/P208A/P217A/Q86G/Q94H/R138H/R169H/T345S)
Assay: Competition binding assay using soluble HLA class I
Where a SMILES comes first, the peptide text is derived from it.
quantity: Ki (nM)
// note: answer is a bare numeric in nM

Can you share its Ki? I mean this compound: CSCC[C@H](NC(=O)CN)C(=O)N[C@@H](Cc1ccccc1)C(=O)N[C@@H](CC(=O)O)C(=O)N[C@@H](CO)C(=O)N[C@@H](CO)C(=O)N[C@H](C(=O)N[C@@H](CC(C)C)C(=O)N[C@@H](CS)C(=O)O)C(C)C (H-GMFDSSVLC-OH)
71

Fill in the blank: the reported Ki of CC[C@H](C)[C@H](N)C(=O)N[C@@H](CCSC)C(=O)N[C@@H](C)C(=O)N[C@@H](CCCCN)C(=O)N[C@@H](CC(N)=O)C(=O)N[C@@H](CCC(=O)O)C(=O)N[C@H](C(=O)N[C@@H](Cc1ccccc1)C(=O)N[C@@H](CS)C(=O)N[C@H](C(=O)O)C(C)C)C(C)C (H-IMAKNEVFCV-OH; N-terminus and C-terminus assumed) is ____.
199

* * *

Record form. Attribute: Ki. Fill in for each entry.
Biological target: B*0702 (Homo sapiens, UniProt P01889)
Construct: endogenous in cells
Assay: Competition binding assay using soluble HLA class I
Conditions: Ki (nM), HLA-B0702 section
Where a SMILES comes first, the peptide text is derived from it.
Return type: number; implicit unit nM.

Would you kindly share the measured Ki for CSCC[C@H](NC(=O)CNC(=O)[C@H](CO)NC(=O)[C@@H]1CCCN1C(=O)[C@H](CCCNC(=N)N)NC(=O)[C@H](CCC(=O)O)NC(=O)CNC(=O)[C@@H]1CCCN1C(=O)[C@@H](N)[C@@H](C)O)C(=O)O (H-TPGERPSGM-OH) ?
199

What does the record list as Ki for `CC(C)C[C@H](NC(=O)[C@H](CCCNC(=N)N)NC(=O)[C@@H]1CCCN1C(=O)CNC(=O)[C@H](CCCNC(=N)N)NC(=O)[C@H](CCCNC(=N)N)NC(=O)[C@@H]1CCCN1C(=O)[C@@H](N)CC(C)C)C(=O)NCC(=O)O` ?
124

Value lookup for Ki; key = `CC(C)C[C@H](NC(=O)CNC(=O)[C@H](CCCNC(=N)N)NC(=O)[C@H](Cc1ccc(O)cc1)NC(=O)[C@H](Cc1ccc(O)cc1)NC(=O)[C@H](C)NC(=O)[C@@H](N)C(C)C)C(=O)N[C@@H](CC(=O)O)C(=O)N[C@H](C(=O)O)C(C)C`
1420

What value of Ki has been reported for the following compound? `CC(C)C[C@H](NC(=O)[C@H](CCCNC(=N)N)NC(=O)[C@@H](NC(=O)[C@H](CO)NC(=O)[C@@H](NC(=O)[C@H](CCC(=O)O)NC(=O)[C@H](C)NC(=O)[C@@H]1CCCN1C(=O)[C@@H](N)[C@@H](C)O)[C@@H](C)O)C(C)C)C(=O)O`
375

Given the compound CSCC[C@H](NC(=O)[C@H](Cc1ccc(O)cc1)NC(=O)[C@H](C)NC(=O)CNC(=O)[C@H](Cc1ccccc1)NC(=O)CNC(=O)[C@H](CC(C)C)NC(=O)[C@@H](NC(=O)[C@H](C)N)[C@@H](C)O)C(=O)O (H-ATLGFGAYM-OH) , what is its reported Ki?
13000

# get_value(readout='Ki', item= `CC(C)C[C@H](NC(=O)[C@H](CCCNC(=N)N)NC(=O)[C@@H]1CCCN1C(=O)CNC(=O)[C@H](CCCNC(=N)N)NC(=O)[C@H](CCCNC(=N)N)NC(=O)[C@@H]1CCCN1C(=O)[C@@H](N)CC(C)C)C(=O)O` )
1

Need Ki, item `CC(C)C[C@H](NC(=O)[C@@H]1CCCN1C(=O)[C@H](C)N)C(=O)NCC(=O)NCC(=O)N[C@@H](C)C(=O)N[C@@H](C)C(=O)N[C@@H](CCCNC(=N)N)C(=O)N[C@@H](C)C(=O)O`
115
